Answer each item with its documented protease activity, referring to reference formulation at time 0.
experimental_target: Savinase Ultra 16.0L (Lederbergia lenta, UniProt P29600)
Construct: purchased Sigma-Aldrich
Sequence (P29600 whole entry): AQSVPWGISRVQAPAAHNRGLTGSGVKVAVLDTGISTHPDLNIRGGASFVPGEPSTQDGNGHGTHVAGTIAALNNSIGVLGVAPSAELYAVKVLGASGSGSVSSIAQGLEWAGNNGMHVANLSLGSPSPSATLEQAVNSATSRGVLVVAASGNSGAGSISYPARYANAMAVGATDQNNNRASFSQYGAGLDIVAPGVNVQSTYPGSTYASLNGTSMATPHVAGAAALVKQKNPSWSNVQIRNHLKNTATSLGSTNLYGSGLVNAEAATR
measurement_notes: protease storage stability in liquid formulation (Suc-AAPF-pNA substrate)
Format: biochemical
assay_conditions: base formulation I., 1.5 wt % component (a), storage at 37° C., 7 d
One number for each entry.

Known results for compounds:
[
  {
    "compound": "CCOC(=O)CC(O)(CC(=O)OCC)C(=O)OCC [A.1, Triethylcitrate]",
    "assay_result": 94
  },
  {
    "compound": "CCCCOC(=O)CC(CC(=O)OCCCC)(OC(C)=O)C(=O)OCCCC [A.4, Acetyltributylcitrate]",
    "assay_result": 94
  },
  {
    "compound": "CCCOC(=O)CC(O)(CC(=O)OCCC)C(=O)OCCC [A.2, Tripropylcitrate]",
    "assay_result": 95
  }
]

Consider now this further compound.
Any idea what protease activity, referring to reference formulation at time 0 was measured for CCOC(=O)CC(CC(=O)OCC)(OC(C)=O)C(=O)OCC [A.5, Acetyltriethylcitrate] ?
90

###

experimental_target: Savinase Ultra 16.0L (Lederbergia lenta)
Construct: purchased Sigma-Aldrich
measurement_notes: protease storage stability in liquid formulation (Suc-AAPF-pNA substrate)
Format: biochemical
assay_conditions: base formulation II., 1.5 wt % component (a), storage at 37° C., 42 d
Method: Base test formulations were manufactured by making base formulations I to V by mixing the components according to Table 1. Protease used: (S) Savinase Ultra 16.0L (CAS-No. 9014-01-1, EC-No. 232-752-2) was purchased from Sigma-Aldrich […] The proteolytic activity values provided in Table 3 were calculated referring to the value determined in the reference formulation at the time 0. […]
Could you please report measured protease activity, referring to reference formulation at time 0 for the items listed next?
Give bare numbers.

Look over these answered cases.
[
  {
    "compound": "O=C(CC(O)(CC(=O)OCc1ccccc1)C(=O)OCc1ccccc1)OCc1ccccc1 [A.8, Tribenzylcitrate]",
    "experimental_target": "Savinase Ultra 16.0L (Lederbergia lenta)",
    "assay_result": 75
  },
  {
    "compound": "CCCOC(=O)CC(O)(CC(=O)OCCC)C(=O)OCCC [A.2, Tripropylcitrate]",
    "experimental_target": "Savinase Ultra 16.0L (Lederbergia lenta)",
    "assay_result": 72
  },
  {
    "compound": "CCCCOC(=O)CC(CC(=O)OCCCC)(OC(C)=O)C(=O)OCCCC [A.4, Acetyltributylcitrate]",
    "experimental_target": "Savinase Ultra 16.0L (Lederbergia lenta)",
    "assay_result": 70
  }
]

Switching to the query record.
Can you look up protease activity, referring to reference formulation at time 0 on Savinase Ultra 16.0L (Lederbergia lenta) for CCOC(=O)CC(O)(CC(=O)OCC)C(=O)OCC [A.1, Triethylcitrate] ?
69

###

experimental_target: Savinase Ultra 16.0L (Lederbergia lenta)
Construct: purchased Sigma-Aldrich
measurement_notes: protease storage stability in liquid formulation (Suc-AAPF-pNA substrate)
Assay type: biochemical
assay_conditions: base formulation II., 1.5 wt % component (a), storage at 37° C., T0
So I've got a bunch of molecules here, and I need their protease activity, referring to reference formulation at time 0 values.
One number for each entry.

[
  {
    "molecule": "CCCCOC(=O)CC(CC(=O)OCCCC)(OC(C)=O)C(=O)OCCCC [A.4, Acetyltributylcitrate]",
    "assay_result": 102
  },
  {
    "molecule": "CCCOC(=O)CC(O)(CC(=O)OCCC)C(=O)OCCC [A.2, Tripropylcitrate]",
    "assay_result": 101
  },
  {
    "molecule": "CCOC(=O)CC(O)(CC(=O)OCC)C(=O)OCC [A.1, Triethylcitrate]",
    "assay_result": 100
  }
]

Now turn to the next molecule.
Given the molecule O=C(CC(O)(CC(=O)OCc1ccccc1)C(=O)OCc1ccccc1)OCc1ccccc1 [A.8, Tribenzylcitrate] , what is its reported protease activity, referring to reference formulation at time 0?
100
